Values from ChEMBL document CHEMBL1150544

Quick list: IC50 per entry.
System: P388
Assay: In vitro cytotoxicity against P388-mouse leukemia cells.
Assay type: functional, cell-based

# Compound, IC50, µg/mL
measured = [
    ("CC(=O)N[C@@H](c1ccccc1)[C@@H](O)C(=O)O[C@H]1C[C@@]2(O)[C@@H](OC(=O)c3ccccc3)[C@@H]3[C@]4(OC(C)=O)CO[C@@H]4C[C@H](O)[C@@]3(C)[C@@H](O)[C@H](OC(C)=O)C(=C1C)C2(C)C", 2.02),
    ("CC(=O)O[C@@H]1C2=C(C)[C@@H](OC(=O)[C@H](O)[C@@H](NC(=O)c3ccc(OCc4ccccc4)cc3)c3ccccc3)C[C@@](O)([C@@H](OC(=O)c3ccccc3)[C@@H]3[C@]4(OC(C)=O)CO[C@@H]4C[C@H](O)[C@@]3(C)[C@H]1O)C2(C)C", 0.053),
    ("CC(=O)O[C@H]1C(=O)[C@@]2(C)[C@H]([C@H](OC(=O)c3ccccc3)[C@]3(O)C[C@H](OC(=O)[C@H](O)[C@@H](NC(=O)c4ccccc4)c4ccccc4)C(C)=C1C3(C)C)[C@]1(OC(C)=O)CO[C@@H]1C[C@@H]2O [PACLITAXEL]", 0.046),
    ("CC(=O)O[C@@H]1C2=C(C)[C@@H](OC(=O)[C@H](O)[C@@H](NC(=O)NC(C)(C)C)c3ccccc3)C[C@@](O)([C@@H](OC(=O)c3ccccc3)[C@@H]3[C@]4(OC(C)=O)CO[C@@H]4C[C@H](O)[C@@]3(C)[C@H]1O)C2(C)C", 0.017),
]
